These entries and their values trace back to ChEMBL document CHEMBL4304747.

Provide the recorded degraded at 48 h, 10 µM for the entries that follow.
Experiment: Stability in PBS/DMSO assessed as compound decomposition by measuring decrease in fluorescence intensity at 10 uM measured after 48 hrs
Assay type: physicochemical
Conditions: read-out: Drug degradation
Numbers only here, please. The scale is %.

*Q* // Input: O=c1oc2c(C3OCCCO3)c(O)ccc2c2c1CNCC2 . Output its degraded at 48 h, 10 µM only.
*A* 5.1

*Q* // Input: CC1(C)COC(c2c(O)ccc3c4c(c(=O)oc23)CNCC4)OC1 . Output its degraded at 48 h, 10 µM only.
*A* 60
